These entries and their values trace back to the supplement of paper PMC3545927.

targetEntity: furin, P09958;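 note: purified furin at 1:10 enzyme:substrate in 50 mM HEPES pH 7.5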
Sequence (P09958 whole entry): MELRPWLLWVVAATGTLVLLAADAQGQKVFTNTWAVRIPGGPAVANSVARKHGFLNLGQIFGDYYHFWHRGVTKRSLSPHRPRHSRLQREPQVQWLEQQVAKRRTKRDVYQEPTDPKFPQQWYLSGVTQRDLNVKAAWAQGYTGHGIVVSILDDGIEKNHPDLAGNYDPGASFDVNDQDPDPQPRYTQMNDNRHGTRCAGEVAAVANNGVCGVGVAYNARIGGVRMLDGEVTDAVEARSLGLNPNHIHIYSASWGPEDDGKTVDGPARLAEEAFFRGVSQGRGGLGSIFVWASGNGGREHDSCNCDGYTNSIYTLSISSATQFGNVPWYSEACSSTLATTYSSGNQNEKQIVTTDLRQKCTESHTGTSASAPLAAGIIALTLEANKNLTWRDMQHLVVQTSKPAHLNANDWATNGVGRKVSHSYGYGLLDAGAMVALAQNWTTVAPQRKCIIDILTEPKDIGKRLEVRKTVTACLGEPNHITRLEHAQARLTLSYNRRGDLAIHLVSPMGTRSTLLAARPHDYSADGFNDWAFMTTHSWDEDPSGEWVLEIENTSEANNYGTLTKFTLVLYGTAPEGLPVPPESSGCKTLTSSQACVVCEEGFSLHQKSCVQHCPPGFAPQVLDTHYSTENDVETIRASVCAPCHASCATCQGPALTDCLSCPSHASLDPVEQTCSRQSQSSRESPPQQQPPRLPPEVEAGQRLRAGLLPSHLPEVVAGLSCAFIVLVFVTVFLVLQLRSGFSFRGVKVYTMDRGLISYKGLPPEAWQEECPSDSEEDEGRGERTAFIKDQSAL
testProtocol: furin cleavage Z-score vs untreated control; higher = more cleavage, active = 3.5 or more, inactive = 1 or less, 8 variable residues between constant flanks
conditionSet: 15 min
Some of the results follow. The hit rate among all sequences tested is not known here.
Measured furin cleavage Z-score, listed per entry for reference.
Respond using a number only.

Previously resolved entries follow.
CAWFGCTWMNAGNASASA [HC435] ... 1.68
CAVECCSMSYAGNASASA [HC2012] ... 1.15
CARSRRGIFIAGNASASA [FS-2312] ... 2.13
CARSRRGLFAAGNASASA [FS-2816] ... 2.97
CAPALRSARSAGNASASA [FS-66] ... 1.37

Query block: Please report the measured furin cleavage Z-score for CARLRKQARAAGNASASA [FS-2711]
Result block: 1.95
